Assay: NCI Yeast Anticancer Drug Screen. Data for the sgs1 mgt1 strain (AID 161);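 note: 0% = growth of cultures given vehicle only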
Conditions: S. cerevisiae sgs1 mgt1 strain, at 50.0 µM
Protocol: Growth inhibition of yeast strains with defined genetic alterations is measured as a screen for potential anti-cancer activity. Selected strains with alterations in DNA damage repair or cell cycle control were exposed to compounds and growth inhibition was measured relative to vehicle treated controls. The strain used in this assay is sgs1 mgt1
This is part of a sample that, as a whole, favours compounds with a hit. Of some 79,000 tested, about 15% had one in any assay. Activity calls are given as the source filed them. Cut-off read from the data, not from the text of the source: active = growth inhibition above about 70%; inactive = the rest. Where a SMILES comes first, the peptide text is derived from it. [ ]: non-standard residue; d: D form. Hiv = CC(C)[C@H](O)C(=O)O
Outcome codes: yes for active, no for inactive

- Compound: "CC(=O)NCCN1CCN(C(C)=O)CC1"
  Class label: "no"
- Compound: "CC(=O)SC1CC(=O)OC1=O (stereo not drawn)"
  Class label: "no"
- Compound: "NC(CCCCC(N)C(=O)c1ccccc1)C(=O)c1ccccc1 (stereo not drawn)"
  Class label: "no"
- Compound: "C/C(=N/N(CCCCN(/N=C(/C)c1ccccc1)c1ccccc1)c1ccccc1)c1ccccc1"
  Class label: "no"
- Compound: "COc1ccc(CNc2ncccn2)cc1"
  Class label: "no"
- Compound: "COC1CC(NC(C)=O)C(OC(C)=O)C(CN=[N+]=[N-])O1 (stereo not drawn)"
  Class label: "no"
- Compound: "O=C(CCCn1cnc([N+](=O)[O-])n1)NCCCn1ccnc1[N+](=O)[O-]"
  Class label: "no"
- Compound: "Cc1ccc2[nH]c3c(ncc4[nH]c5ccccc5c43)c2c1"
  Class label: "no"
- Compound: "CN(C)CCCNc1nc(Cl)nc2nc(-c3ccccc3)c(-c3ccccc3)nc12"
  Class label: "no"
- Compound: "Cc1c(C(=O)O)[nH]c2c(Cl)ccc(C)c2c1=O"
  Class label: "no"
- Compound: "CCOC(=O)C1(C(=O)OCC)C2C=CC(C2)C1C(=O)OC (stereo not drawn)"
  Class label: "no"
- Compound: "O=C1CCCc2[nH]c3ccc(Cl)cc3c21"
  Class label: "no"
- Compound: "CC(C)[C@@H]1OC(=O)[C@@H](C)NC(=O)[C@@H]2CCCN2C1=O (cyclo([Hiv]-Pro-[dA]))"
  Class label: "no"
- Compound: "CCC(Cc1ccccc1)OC(=O)c1ccccc1C(=O)O (stereo not drawn)"
  Class label: "no"
- Compound: "O=c1[nH]c(=O)c2nccnc2[nH]1"
  Class label: "no"
- Compound: "O=C(CCCCl)CCCCl"
  Class label: "no"
- Compound: "CN1C(=O)n2c(nc3ccccc32)C(N2CCOCC2)(N2CCOCC2)C1=O"
  Class label: "no"
- Compound: "CCOCc1ccccc1C(O)(c1ccc(OC)cc1)c1ccccc1OC (stereo not drawn)"
  Class label: "no"
- Compound: "C[P+]1(CCc2ccc(Cl)cc2)CC=CC1"
  Class label: "no"
- Compound: "CN(C)c1ccn(C2OC(CO)C(O)C2SC(C)(C)C)c(=O)n1 (stereo not drawn)"
  Class label: "no"
- Compound: "O=C(c1ccccc1)C(C(c1ccc(Cl)cc1)N1CCOCC1)N1CCOCC1 (stereo not drawn)"
  Class label: "no"
- Compound: "C=CCC(CC=C)(C(=O)Nc1ccc2nc(C)cc(N)c2c1)C(=O)Nc1ccc2nc(C)cc(N)c2c1"
  Class label: "no"
- Compound: "NC(CS(N)(=O)=O)C(=O)O (stereo not drawn)"
  Class label: "no"
- Compound: "NC(=O)c1ccc[n+](-c2ccc([N+](=O)[O-])cc2[N+](=O)[O-])c1"
  Class label: "yes"
- Compound: "CC1(C)CC(C)(C)CC(O)(C2(O)CC(C)(C)CC(C)(C)C2)C1"
  Class label: "no"
- Compound: "NC1=NC(c2ccccc2)C2=C(N1)C(=O)N(Cc1ccccc1)C2 (stereo not drawn)"
  Class label: "no"
- Compound: "Cc1cc(N(CCOS(C)(=O)=O)CCOS(C)(=O)=O)ccc1C=Nc1ccc(C(=O)O)c(O)c1"
  Class label: "no"
- Compound: "CC(C#N)Nc1ccc(Oc2ccc(C(C)(C)c3ccc(Oc4ccc(NC(C)C#N)cc4)cc3)cc2)cc1 (stereo not drawn)"
  Class label: "no"
- Compound: "NC(=O)ON=C1CCN(Cc2ccccc2)CC1"
  Class label: "no"
- Compound: "CCNc1ncnc2c1cnn2C"
  Class label: "no"
- Compound: "COc1ccc(OC)c(CC(N)=O)c1"
  Class label: "no"
- Compound: "CCOC(=O)CCC1CCCCC1"
  Class label: "no"
- Compound: "COc1ccc(OC)c(NC(=O)CCCC(=O)C(C#N)c2c(Cl)cccc2Cl)c1 (stereo not drawn)"
  Class label: "no"
- Compound: "COC(=O)Nc1ccc(C)cc1[N+](=O)[O-]"
  Class label: "no"
- Compound: "C1=[N+](c2ccccc2)CCN1c1ccccc1"
  Class label: "no"
- Compound: "CC(C)C(=O)Nc1nc(OCCc2ccc([N+](=O)[O-])cc2)c2ncn(C3CC(O)C(CO)O3)c2n1 (stereo not drawn)"
  Class label: "no"
- Compound: "COC(CN1C(=O)CSC1=S)OC"
  Class label: "no"
- Compound: "Cc1nn(-c2ccccc2)c2oc3ccccc3c(=O)c12"
  Class label: "no"
- Compound: "Cc1ccc(C)c(NC(=O)C(=O)C(C(=O)c2ccc3ccccc3c2)C2OC(=O)c3ccccc32)c1 (stereo not drawn)"
  Class label: "no"
- Compound: "NC(=O)Nc1ccccc1"
  Class label: "no"
- Compound: "NC(CSSCC(N)=NC1CCCCC1)=NC1CCCCC1"
  Class label: "no"
- Compound: "C=CCCCC(C#N)c1ccc2c(c1)OCO2 (stereo not drawn)"
  Class label: "no"
- Compound: "N#CCCc1ccc[nH]1"
  Class label: "no"
- Compound: "COC(=O)c1ccccc1-c1ccccc1C(=O)OC"
  Class label: "no"
- Compound: "O=C(O)c1cccc(F)c1C(=O)O"
  Class label: "no"
- Compound: "COCCCC(NC(=O)C(CC(C)C)NC(=O)OCc1ccc(OC)cc1)C(=O)OC (stereo not drawn)"
  Class label: "no"
- Compound: "CCOC(=O)CC[C@H](NC(=O)c1nc[nH]c1[N+](=O)[O-])C(=O)OCC"
  Class label: "no"
- Compound: "CCCCn1c(CCC)nc([N+](=O)[O-])c1Sc1ncn[nH]1"
  Class label: "no"

###

Assay: NCI Yeast Anticancer Drug Screen. Data for the bub3 strain (AID 167)
Conditions: S. cerevisiae bub3 mutant strain, at 50.0 µM, hits give high values
Procedure: Growth inhibition of yeast strains with defined genetic alterations is measured as a screen for potential anti-cancer activity. Selected strains with alterations in DNA damage repair or cell cycle control were exposed to compounds and growth inhibition was measured relative to vehicle treated controls. The strain used in this assay is bub3
This is part of a sample that, as a whole, favours compounds with a hit. Of some 79,000 tested, about 15% had one in any assay.

- Compound: "CCS1=C2C(=O)CC(C)(C)CC2=Nc2ccccc21 (centres undefined)"
  growth inhibition, %: 17.9
- Compound: "Fc1cccc2nc(-c3ccccc3)cc(OCc3ccccc3)c12"
  growth inhibition, %: 11.8
- Compound: "Cc1ccc(NC(N)=O)cc1"
  growth inhibition, %: -1.05
- Compound: "Cc1ccc(F)cc1S(N)(=O)=O"
  growth inhibition, %: 12.3
- Compound: "C/C=C(\\C)C(=O)OC1C2C(C)C(=O)OC2C(O)C(C)C2C=CC(=O)C21C (centres undefined)"
  growth inhibition, %: -21.4
- Compound: "CCCCCCCCCCCCCCCCc1c(C)nc(N(C)C)oc1=O"
  growth inhibition, %: 21.1
- Compound: "C=CCOC(C)n1c(C)cc(=O)n(C(C)OCC=C)c1=O (centres undefined)"
  growth inhibition, %: -44.9
- Compound: "CCc1cc(-c2ccc(OC)cc2)c(C#N)c(=S)n1C1OC(CO)C(O)C(O)C1O (centres undefined)"
  growth inhibition, %: 3.35
- Compound: "O=C(/C=C(\\N=P(c1ccccc1)(c1ccccc1)c1ccccc1)C(F)(F)C(F)(F)C(F)(F)C(F)(F)C(F)(F)C(F)(F)C(F)(F)F)c1ccccc1"
  growth inhibition, %: 14.2
- Compound: "O=C(Cc1ccccc1)c1c[nH]c2c(O)ccc(O)c12"
  growth inhibition, %: -13.9
- Compound: "O=C(C1C2C=CC(C2)C1C(=O)N1CCCCC1)N1CCCCC1 (centres undefined)"
  growth inhibition, %: 12.3
- Compound: "CC(C)CC(C#N)C(=O)O (centres undefined)"
  growth inhibition, %: -4.35
- Compound: "O=C1CN(c2cccc(C(F)(F)F)c2)C(=O)CN1/N=C/c1ccc(O)c(O)c1"
  growth inhibition, %: 2.4
- Compound: "O=C(/C=C/c1ccco1)c1ccc(NCc2nc3ccccc3[nH]2)cc1"
  growth inhibition, %: 13.8
- Compound: "C=C(C)CS(=O)(=O)O"
  growth inhibition, %: 3.35
- Compound: "O=C/C=C/C=C/C=C/c1ccccc1"
  growth inhibition, %: -5.25
- Compound: "O=C1C2C3CC(C4C5C=CC(C5)C34)C2C2C3CC(C12)C1C2C=CC(C2)C31 (centres undefined)"
  growth inhibition, %: -9.15
- Compound: "CCCC(=O)/C=C\\c1ccccc1"
  growth inhibition, %: 3.2
- Compound: "c1ccc2c(c1)CCc1cc3cc4c(nc3nc1-2)-c1ccccc1CC4"
  growth inhibition, %: -1.75
- Compound: "O=C(O)Cc1ccc([N+](=O)[O-])cc1"
  growth inhibition, %: 12.8
- Compound: "NC(N)=NS(=O)(=O)c1ccc(NC(=O)c2cccc3c(N)c4ccccc4nc23)cc1"
  growth inhibition, %: -9
- Compound: "N#CC(C(=O)O)=C1CCCCCC1"
  growth inhibition, %: 5.5
- Compound: "C=C(C)C(O)CC(C)C (centres undefined)"
  growth inhibition, %: 2.95
- Compound: "COc1cc(OC)cc(C(=O)NN)c1"
  growth inhibition, %: 0.5
- Compound: "CC(C)Oc1c(O)c2c3c(oc(=O)n3C=CC2c2ccccc2)c1OC(C)C (centres undefined)"
  growth inhibition, %: 85.5
- Compound: "CCOc1ncc(C(=O)c2ccc(C)cc2)c(OCC)n1"
  growth inhibition, %: 3.6
- Compound: "CCN(CC)CCNc1ccc(C)c2sc3ccc(N)cc3c(=O)c12"
  growth inhibition, %: -0.35
- Compound: "O=[n+]1c2c(n([O-])c3cc(Cl)c(Cl)cc31)CCCC2"
  growth inhibition, %: 25.9
- Compound: "CCCC(=O)OC1=CC(=O)c2ccccc2C1=O"
  growth inhibition, %: -10.2
- Compound: "Cc1[nH]c2ccc(-c3ccccc3)cc2c1CC(=O)OC(C)C"
  growth inhibition, %: 98.2
- Compound: "CCc1ccccc1Cc1ccccc1"
  growth inhibition, %: -1.55
- Compound: "COc1ccc(CCN(C)C2c3ccccc3C=Cc3ccccc32)cc1OC"
  growth inhibition, %: -1.85
- Compound: "C(=Nc1ccc2c(c1)Cc1ccccc1-2)c1ccccn1"
  growth inhibition, %: -22.8
- Compound: "COc1cc2c(cc1O)C(=O)CCC(C(=O)O)=C2"
  growth inhibition, %: 2
- Compound: "CCCCOC(=O)NC(C)=O"
  growth inhibition, %: -1.55
- Compound: "O=C1OC(/C=C/c2ccccc2)=NC/1=C\\c1ccccc1O"
  growth inhibition, %: 0.7
- Compound: "NS(=O)(=O)c1ccc(NC(NC(=O)C(C(F)(F)F)C(F)(F)F)(C(F)(F)F)C(F)(F)F)cc1"
  growth inhibition, %: 5.15
- Compound: "COc1ccc2c(c1)CC1=C2CCC2(C)C(=O)CC=C12 (centres undefined)"
  growth inhibition, %: 4.5
- Compound: "COC(=O)C1=C(O)C(C(=O)OC)[C@@]2(O)[C@@H](C(=O)OC)CC[C@@H]1[C@@H]2C(=O)OC (some centres undefined)"
  growth inhibition, %: -3.5
- Compound: "CCCCS(=O)(=O)CCCCCCl"
  growth inhibition, %: -6.45
- Compound: "CCOC(=O)N1Cc2cc3ccccc3nc2C1CC(=O)O (centres undefined)"
  growth inhibition, %: -1.65
- Compound: "COC(=O)C(C#N)(CCc1ccc([N+](=O)[O-])cc1)CCc1ccc([N+](=O)[O-])cc1"
  growth inhibition, %: 5.6
- Compound: "CCN(CC)CCOc1cc(C(C)C)ccc1C"
  growth inhibition, %: 40.5
- Compound: "CC(C)(C)C1=CC(=O)CCC1"
  growth inhibition, %: -26.9
- Compound: "Clc1cccc(-c2sc(-c3cccs3)cc2Cc2cccs2)c1"
  growth inhibition, %: -9.2
- Compound: "OC(CCl)CN1CCN(CC(O)CCl)CC1 (centres undefined)"
  growth inhibition, %: -9.55
- Compound: "CC1(c2cccs2)C(=O)NC(=O)N1C(=O)CCl (centres undefined)"
  growth inhibition, %: 9.3
- Compound: "O=C(O)c1cc(O)c(C(=O)O)cc1O"
  growth inhibition, %: -3.25
- Compound: "NC(=O)N=Nc1ccc(Br)cc1"
  growth inhibition, %: -3.55
